Field: Population Membrane Permeable-Phenotype (%). Provide a value for each of the molecules that follow.
Tested on: HEK-293T
assay_notes: Multiplex assay against HEK293T
Type: toxicity, cell-based
experimental_parameters: human, 48 h, 10 µM, compound concentration 10 uM, replicate 1
One number for each entry, in %.

Completed entries (count: 6):
# molecule, target_desc, measurement_unit, measured_number
measured = [
    ("CCc1cc2cc(NS(=O)(=O)c3ccc(C#N)cc3)ccc2n(CC)c1=O", "HEK-293T", "%", 1),
    ("Cl.NCCc1ccc(O)c(O)c1 [DOPAMINE HYDROCHLORIDE]", "HEK-293T", "%", 0),
    ("Br.CS(=O)(=O)Nc1c(O)ccc2c1CCCC2C1=NCCN1 (stereo not drawn)", "HEK-293T", "%", 1),
    ("CN1CCN(c2cc(-c3ccccc3)nc(N)n2)CC1", "HEK-293T", "%", 0),
    ("CCCCC1=NC2(CCCC2)C(=O)N1Cc1ccc(-c2ccccc2-c2nnn[nH]2)cc1", "HEK-293T", "%", 0),
    ("CN[C@@H](C)C(=O)N[C@H](C(=O)N1CCC[C@H]1C(=O)Nc1snnc1-c1ccccc1)C1CCCCC1", "HEK-293T", "%", 0),
]

Can you give me Population Membrane Permeable-Phenotype (%) for all of these, one by one?
1. CN(C)C(=O)Cn1cc(-c2ccc(-c3cncc4ccccc34)cc2)cn1
2. O=C1[C@H](Cc2ccc(O)cc2)N2C(=O)CCN(C(=O)NCc3ccccc3)[C@H]2CN1Cc1cccc2ccccc12
3. COc1ccccc1N1CCN(C[C@@H](C(=O)NC(C)(C)C)c2ccccc2)CC1.Cl.Cl
4. N#Cc1c(Oc2cccc(OS(=O)(=O)CCCC(F)(F)F)c2)cccc1C(F)(F)F
5. CC(=O)Nc1cccc2c1c(Sc1ccc(Cl)cc1)c(C)n2CC(=O)O
6. O=C(NCCN1CCC(n2c(=O)[nH]c3cc(Cl)ccc32)CC1)c1ccc(F)cc1 [HALOPEMIDE]
7. CCCOc1ccc2[nH]cc(C3=CCNCC3)c2n1.Cl
8. C[C@H](N)COC(=O)[C@@H](CCCCN)NC(=O)Cc1c(-c2ccc3ccccc3c2)[nH]c2c1ccc1ccccc12

Return:
1. 0
2. 0
3. 0
4. 0
5. 0
6. 1
7. 0
8. 0

---

System: U2OS
assay_notes: Multiplex assay against U2OS
Format: toxicity, cell-based
experimental_parameters: human, 12 h, 10 µM, compound concentration 10 uM, replicate 2
Field: Population Apoptotic (%). Provide a value for each of the compounds that follow.
Numbers only, in %.

Completed entries (count: 5):
# compound, measurement_unit, Population Apoptotic (%)
records = [
    ("Cc1cccc(NC(=O)CN2CCC(c3ccccn3)CC2)c1.Cl.Cl", "%", 66),
    ("NCCc1cn(S(=O)(=O)c2c(Cl)nc3sccn23)c2ccccc12.O=C(O)C(=O)O", "%", 82),
    ("O=C(CCCc1ccccc1)Nc1nc2ccccc2c(=O)s1", "%", 100),
    ("CCCCC1=NC2(CCCC2)C(=O)N1Cc1ccc(-c2ccccc2-c2nnn[nH]2)cc1", "%", 100),
    ("N#Cc1cc(F)cc(-c2nc(-c3ccc(F)cn3)no2)c1", "%", 88),
]

Can you give me Population Apoptotic (%) for all of these, one by one?
1. CC(C)COc1ccc(CNC(=O)N(Cc2ccc(F)cc2)C2CCN(C)CC2)cc1
2. O=C(NCCN1CCC(n2c(=O)[nH]c3cc(Cl)ccc32)CC1)c1ccc(F)cc1 [HALOPEMIDE]
3. CC(C)c1noc(N2CCC(COc3ccc(-c4ccc(S(C)(=O)=O)cc4)nc3)CC2)n1
4. CCc1cc2cc(NS(=O)(=O)c3ccc(C#N)cc3)ccc2n(CC)c1=O
5. CCCOc1ccc2[nH]cc(C3=CCNCC3)c2n1.Cl
6. N#Cc1c(Oc2cccc(OS(=O)(=O)CCCC(F)(F)F)c2)cccc1C(F)(F)F
7. Cc1cnc(-c2cc(N3CCN(C(=O)CCS(C)(=O)=O)CC3)ncc2Cl)c(C)c1

Return:
[71, 61, 100, 87, 60, 90, 75]

Can you give me Population Apoptotic (%) for all of these, one by one?
1. Cc1sc2c(c1C)C(c1ccc(Cl)cc1)=N[C@@H](CC(=O)NCCCCCCCCNC(=O)COc1cccc3c1C(=O)N(C1CCC(=O)NC1=O)C3=O)c1nnc(C)n1-2 (some centres not stated)
2. COC[C@@H](c1ccc(C(F)(F)F)cc1)N1CCN(C2(C)CCN(C(=O)c3c(C)ncnc3C)CC2)C[C@@H]1C.O=C(O)/C=C\C(=O)O [VICRIVIROC MALEATE]
3. CN[C@@H](C)C(=O)N[C@H](C(=O)N1CCC[C@H]1C(=O)Nc1snnc1-c1ccccc1)C1CCCCC1
4. CN(C)C(=O)Cn1cc(-c2ccc(-c3cncc4ccccc34)cc2)cn1
5. CN1CCN(c2cc(-c3ccccc3)nc(N)n2)CC1

Return:
[100, 33, 70, 100, 73]

Can you give me Population Apoptotic (%) for all of these, one by one?
1. CC(/C=C1\SC(=S)N(CCCC(=O)Nc2ccc(C(=O)O)c(O)c2)C1=O)=C\c1ccccc1
2. Cc1c(CC(=O)O)c2cccnc2n1Cc1ccc(S(C)(=O)=O)cc1C(F)(F)F
3. Cc1onc(-c2ccccc2Cl)c1C(=O)N(C)c1ccc(Cl)cc1
4. COc1cccc2c1c(NS(=O)(=O)c1ccc(Cl)s1)nn2Cc1cccc(CNC(=O)C(C)(C)O)c1
5. Cc1noc(-c2ccc(-c3ccc(CC(=O)O)cc3)cc2)c1NC(=O)O[C@H](C)c1ccccc1Cl
6. Cl.NCCc1ccc(O)c(O)c1 [DOPAMINE HYDROCHLORIDE]
7. O=C1[C@H](Cc2ccc(O)cc2)N2C(=O)CCN(C(=O)NCc3ccccc3)[C@H]2CN1Cc1cccc2ccccc12
8. COc1ccccc1N1CCN(C[C@@H](C(=O)NC(C)(C)C)c2ccccc2)CC1.Cl.Cl

Return:
1: 72; 2: 100; 3: 77; 4: 83; 5: 71; 6: 75; 7: 72; 8: 50

Can you give me Population Apoptotic (%) for all of these, one by one?
1. CCCCCC(O)/C=C/[C@H]1C(=O)CC(O)C1C/C=C\CCCC(=O)O (some centres not stated)
2. CC(=O)Nc1cccc2c1c(Sc1ccc(Cl)cc1)c(C)n2CC(=O)O

Return:
66
80

Every entry's value here was drawn from ChEMBL document CHEMBL5058577.
